- target of assay: mushroom tyrosinase (Agaricus bisporus)
- Sequence (C7FF04 1-392): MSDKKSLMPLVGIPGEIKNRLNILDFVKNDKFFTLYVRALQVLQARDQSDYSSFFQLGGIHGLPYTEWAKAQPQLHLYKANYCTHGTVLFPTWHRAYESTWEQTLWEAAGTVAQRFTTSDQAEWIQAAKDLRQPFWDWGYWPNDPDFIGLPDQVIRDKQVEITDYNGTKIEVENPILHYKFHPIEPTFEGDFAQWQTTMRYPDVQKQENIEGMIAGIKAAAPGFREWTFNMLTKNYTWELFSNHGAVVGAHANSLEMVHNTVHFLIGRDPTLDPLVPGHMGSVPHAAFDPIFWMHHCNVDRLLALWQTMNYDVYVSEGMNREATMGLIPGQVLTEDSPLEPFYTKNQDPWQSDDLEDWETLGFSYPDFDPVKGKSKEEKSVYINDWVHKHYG
# reported IC50; entries follow

smiles representation	censoring sign	IC50 [µM]
COc1ccc(/C=C2\CCc3cc(O)ccc3C2=O)cc1OC	=	17.6
O=C1/C(=C/c2ccc(Cl)cc2)CCc2cc(O)ccc21	=	22.4
O=C1/C(=C/c2ccc(O)cc2)CCc2cc(O)ccc21	=	48.6
CCOc1cc(/C=C2\CCc3cc(O)ccc3C2=O)ccc1O	=	21.4
COc1ccc(/C=C2\CCc3cc(O)ccc3C2=O)cc1	=	17.6
COc1cc(/C=C2\CCc3cc(O)ccc3C2=O)cc(OC)c1OC	=	8.8
COc1ccccc1/C=C1\CCc2cc(O)ccc2C1=O	=	11.1
COc1cc(/C=C2\CCc3cc(O)ccc3C2=O)cc(OC)c1O	>	50
